testedSystem: Muscarinic acetylcholine receptor M4 (Homo sapiens) (UniProt P08173)
Sequence (P08173 whole entry, looked up): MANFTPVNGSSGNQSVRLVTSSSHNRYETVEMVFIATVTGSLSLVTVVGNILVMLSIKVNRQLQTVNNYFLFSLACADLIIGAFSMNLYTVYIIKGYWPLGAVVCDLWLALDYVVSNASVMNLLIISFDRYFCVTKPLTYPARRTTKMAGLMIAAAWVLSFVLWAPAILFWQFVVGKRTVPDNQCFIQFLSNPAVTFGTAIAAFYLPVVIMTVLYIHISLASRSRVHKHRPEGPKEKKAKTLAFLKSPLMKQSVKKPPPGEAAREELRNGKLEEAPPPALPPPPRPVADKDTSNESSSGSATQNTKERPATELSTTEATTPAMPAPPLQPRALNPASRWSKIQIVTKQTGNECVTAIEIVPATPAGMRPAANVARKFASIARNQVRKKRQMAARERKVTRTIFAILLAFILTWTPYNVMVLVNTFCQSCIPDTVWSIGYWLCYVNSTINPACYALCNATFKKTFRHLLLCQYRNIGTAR
assayName: M4-linked GIRK flux change, two-sided – cell-based, HEK293 M4/GIRK, thallium flux, BTC-AM, M4 allosteric agonist project, primary screen (AID 625);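 also: thallium influx through GIRK channels coupled to M4 in HEK293 cells with BTC-AM dye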
runParameters: at 10 µM, actives lie on both sides
Below, each entry is listed alongside its reported fluorescence slope.
readoutKind: fluorescence slope

- compound: "CCN1C(=O)NC(c2cc(Br)ccc2OC)C(C(=O)OC)=C1C (stereo not given)"
  testedSystem: "Muscarinic acetylcholine receptor M4 (Homo sapiens) (UniProt P08173)"
  readoutKind: "fluorescence slope"
  observedMeasurement: 0.00605
- compound: "CC(C(=O)N1CCc2ccccc21)N1CCc2ccccc2C1 (stereo not given)"
  testedSystem: "Muscarinic acetylcholine receptor M4 (Homo sapiens) (UniProt P08173)"
  readoutKind: "fluorescence slope"
  observedMeasurement: 0.00595
- compound: "COC(=O)c1ccc(NC(=O)CN2C(=O)CSC2=O)cc1"
  testedSystem: "Muscarinic acetylcholine receptor M4 (Homo sapiens) (UniProt P08173)"
  readoutKind: "fluorescence slope"
  observedMeasurement: 0.00594
- compound: "CC(C)C(=O)Nc1nnc(CCc2nnc(NC(=O)C(C)C)s2)s1"
  testedSystem: "Muscarinic acetylcholine receptor M4 (Homo sapiens) (UniProt P08173)"
  readoutKind: "fluorescence slope"
  observedMeasurement: 0.00508
- compound: "N#CC(C(=O)Nc1ccccc1)=C1CCCCC1"
  testedSystem: "Muscarinic acetylcholine receptor M4 (Homo sapiens) (UniProt P08173)"
  readoutKind: "fluorescence slope"
  observedMeasurement: 0.0049

Ref: PubChem BioAssay
